tested on: NCI-H1975; assay: Antiproliferative activity against human NCI-H1975 cells assessed as cell growth inhibition measured after 72 hrs by MTT assay; assay type: functional, cell-based; settings: NCI-H1975, 72 h
TEST READOUT: IC50 (µM)
State the answer as a number, implicitly in µM.

Examples with answers:
COc1cc(F)ccc1-c1ncnc(Nc2cccc(C[S@](C)(=N)=O)c2)n1 [ATUVECICLIB]; 0.72
O=C(NCCN1CCCCC1)c1ccc(Nc2nccc(-c3ccc(F)cc3OCc3ccccc3)n2)cc1; 5.83
O=C(NCCO)c1ccc(Nc2nccc(-c3ccc(F)cc3OCc3ccccc3)n2)cc1; 19
COc1cc(F)ccc1-c1ccnc(Nc2ccc(C(=O)NCCN(C)C)cc2)n1; 2.17
O=C(NCCF)c1ccc(Nc2nccc(-c3ccc(F)cc3OCc3ccccc3)n2)cc1; 28.5

Qu. Quick one: IC50 for O=C(O)c1ccc(Nc2nccc(-c3ccc(F)cc3OCc3ccccc3)n2)cc1 ?
Ans. 8.35

Qu. # query: IC50 of entry O=C(NCCCN1CCOCC1)c1ccc(Nc2nccc(-c3ccc(F)cc3OCc3ccccc3)n2)cc1
Ans. 2.71

---

test system: NCI-H1975; assay: Antiproliferative activity against human NCI-H1975 cells assessed as cell growth inhibition measured after 72 hrs by MTT assay; assay type: functional, cell-based; conditions: NCI-H1975, 72 h
TEST READOUT: IC50

Completed entries (count: 2):
CN1CCN(C(=O)c2ccc(Nc3nccc(-c4ccc(F)cc4OCc4ccccc4)n3)cc2)CC1; 1.21 µM
CCN(CC)CCNC(=O)c1ccc(Nc2nccc(-c3ccc(F)cc3OCc3ccccc3)n2)cc1; 1.2 µM

Qu. Please report the recorded IC50 for CC(C)N(CCNC(=O)c1ccc(Nc2nccc(-c3ccc(F)cc3OCc3ccccc3)n2)cc1)C(C)C .
Ans. 0.86 µM

Qu. Consider the molecule CN(C)CCNC(=O)c1ccc(Nc2nccc(-c3ccc(F)cc3OCc3ccccc3)n2)cc1 and give its measured IC50.
Ans. 0.43 µM

---

test system: HCT-116; experiment: Antiproliferative activity against human HCT-116 cells assessed as cell growth inhibition measured after 72 hrs by MTT assay; assay type: functional, cell-based; settings: HCT-116, 72 h
compounds and their reported pIC50
Please keep in mind that pIC50 is minus log10 of the molar concentration; only the number is needed.

Look over these answered cases.
O=C(O)c1ccc(Nc2nccc(-c3ccc(F)cc3OCc3ccccc3)n2)cc1; 5.01
O=C(c1ccc(Nc2nccc(-c3ccc(F)cc3OCc3ccccc3)n2)cc1)N1CCNCC1; 5.62
O=C(NCCF)c1ccc(Nc2nccc(-c3ccc(F)cc3OCc3ccccc3)n2)cc1; 4.75
O=C(NCCO)c1ccc(Nc2nccc(-c3ccc(F)cc3OCc3ccccc3)n2)cc1; 4.82
CN(C)CCNC(=O)c1ccc(Nc2nccc(-c3ccc(F)cc3OCc3ccccc3)n2)cc1; 7.05
O=C(NCCCN1CCOCC1)c1ccc(Nc2nccc(-c3ccc(F)cc3OCc3ccccc3)n2)cc1; 5.56
CN1CCN(C(=O)c2ccc(Nc3nccc(-c4ccc(F)cc4OCc4ccccc4)n3)cc2)CC1; 5.25

# next compound below
Qu. Please report the recorded pIC50 for CC(C)N(CCNC(=O)c1ccc(Nc2nccc(-c3ccc(F)cc3OCc3ccccc3)n2)cc1)C(C)C .
Ans. 6.43
